Target: IDH1 R132H (Homo sapiens, UniProt O75874, R132H)
Sequence (O75874 whole entry R132H): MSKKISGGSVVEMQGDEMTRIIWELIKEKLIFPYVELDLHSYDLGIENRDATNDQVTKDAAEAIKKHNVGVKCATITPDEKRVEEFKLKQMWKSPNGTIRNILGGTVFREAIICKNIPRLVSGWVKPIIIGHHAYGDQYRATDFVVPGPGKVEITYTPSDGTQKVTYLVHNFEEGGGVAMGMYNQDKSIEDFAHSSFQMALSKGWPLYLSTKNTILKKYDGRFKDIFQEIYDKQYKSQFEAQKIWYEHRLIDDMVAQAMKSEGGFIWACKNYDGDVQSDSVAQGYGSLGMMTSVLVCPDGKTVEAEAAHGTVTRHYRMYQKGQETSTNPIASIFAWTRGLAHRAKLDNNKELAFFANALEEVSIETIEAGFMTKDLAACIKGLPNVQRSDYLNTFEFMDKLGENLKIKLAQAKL
Experiment: Assay for IDH1 R132H inhibitors (NADPH/aKG, resazurin detection)
Assay type: biochemical
Conditions: enzyme assay of Example 12; read-out: IDH1R132H IC50
measuredEndpoint: IC50

For orientation, consider the following solved cases.
Query: Consider the molecule `C=CC(=O)N1CCC=C(c2c(C3CC3)nc(N3CCN(C(=O)CCO)[C@H](C4CC4)C3)c(C#N)c2C)C1` and give its measured IC50.
Response: < 0.5 µM

Query: Consider the molecule `C=Cc1cc(Nc2cc(C#N)c(N3CCN(C(=O)C[C@H]4CCO4)[C@H](C4CC4)C3)nc2C2CC2)ccn1` and give its measured IC50.
Response: < 0.5 µM

---
Query: Consider the molecule `C[C@@H]1CN(c2nc(C3CC3)c(-c3cccc4c3CN(C)C4=O)cc2C#N)CCN1C(=O)C1CC1` and give its measured IC50.
Response: 0.5 to 1 µM

Query: Consider the molecule `C=CS(=O)(=O)Nc1cccc(-c2cc(C#N)c(N3CCN(C(=O)CCOC)[C@H](C)C3)nc2C2CC2)c1` and give its measured IC50.
Response: < 0.5 µM

Query: Consider the molecule `COCCC(=O)N1CCN(c2nc(C3CC3)c(-c3cccc4cnccc34)cc2C#N)C[C@H]1C1CC1` and give its measured IC50.
Response: < 0.5 µM

Query: Consider the molecule `C=Cc1cc(Cc2cc(C#N)c(N3CCN(C(=O)CCO)[C@H](C4CC4)C3)nc2C2CC2)ccn1` and give its measured IC50.
Response: < 0.5 µM

* * *

The following compounds are shown together with reported IC50 values.
Target: IDH1 R132H (Homo sapiens, UniProt O75874, R132H)
Assay: Assay for IDH1 R132H inhibitors (NADPH/aKG, resazurin detection)
Assay type: biochemical
Conditions: enzyme assay of Example 12; read-out: IDH1R132H IC50

For orientation, consider the following solved cases.
Query: Consider the compound `N#Cc1cc(-c2ccc3c(c2)C(=O)C(=O)N3)c(C2CC2)nc1N1CCN(C(=O)C2CC2)[C@H](C2CC2)C1` and give its measured IC50.
Response: 500 to 1000 nM

Query: Consider the compound `C=Cc1cc(-c2cc(C#N)c(N3CCN(C(=O)CCO)[C@H](C4CC4)C3)nc2C2CC2)nc(N)n1` and give its measured IC50.
Response: < 500 nM

Query: Consider the compound `C[C@@H]1CN(c2nc(C3CC3)c(-c3ccc(C#N)nc3)cc2C#N)CCN1C(=O)C1CC1` and give its measured IC50.
Response: 500 to 1000 nM

Query: Consider the compound `N#Cc1cc(-c2cccc3ncoc23)c(C2CC2)nc1N1CCN(C(=O)C2CC2)[C@H](C2CC2)C1` and give its measured IC50.
Response: < 500 nM

Query: Consider the compound `COCCC(=O)N1CCN(c2nc(C3CC3)c(-c3cncc(C)c3)c(C)c2C#N)C[C@H]1C` and give its measured IC50.
Response: < 500 nM

---
Query: Consider the compound `C=Cc1cc(Nc2cc(C#N)c(N3CCN(C(=O)CCO)[C@H](C4CC4)C3)nc2C2CC2)ccn1` and give its measured IC50.
Response: < 500 nM

Query: Consider the compound `COCCC(=O)N1CCN(c2nc(C3CC3)c(-c3cc4ccccc4[nH]3)cc2C#N)C[C@H]1C` and give its measured IC50.
Response: 500 to 1000 nM

* * *

The following molecules are shown together with reported IC50 values.
Molecular target: IDH1 R132H (Homo sapiens, UniProt O75874, R132H)
Assay: Assay for IDH1 R132H inhibitors (NADPH/aKG, resazurin detection)
Format: biochemical
Details: enzyme assay of Example 12; read-out: IDH1R132H IC50

For orientation, consider the following solved cases.
Query: Consider the molecule C=Cc1cnc2c(/C=C/c3cnc4c(-c5cc(C#N)c(N6CCN(C(=O)CCOC)[C@H](C)C6)nc5C5CC5)cccc4n3)cccc2n1 [Compound 604] and give its measured IC50.
Response: < 500 nM

Query: Consider the molecule C=C(C)c1cc(-c2cc(C#N)c(N3CCN(C(=O)C4CC4)[C@H](C4CC4)C3)nc2C2CC2)ccn1 [Compound 544] and give its measured IC50.
Response: < 500 nM

Query: Consider the molecule C=CC(=O)N1CCC=C(c2cc(C#N)c(N3CCN(C(=O)COC)[C@H](C4CC4)C3)nc2C2CC2)C1 [Compound 728] and give its measured IC50.
Response: < 500 nM

---
Query: Consider the molecule C=Cc1cccc(-c2cc(C#N)c(N3CCN(C(=O)C4CC4)[C@H](C4CC4)C3)nc2C2CC2)n1 [Compound 499] and give its measured IC50.
Response: 500 to 1000 nM

Query: Consider the molecule N#Cc1cc(-c2cnn(C3CCC(O)C3)c2)c(C2CC2)nc1N1CCN(C(=O)C2CC2)[C@H](C2CC2)C1 (some centres unmarked) [Compound 493] and give its measured IC50.
Response: 500 to 1000 nM

* * *

Target: IDH1 R132H (Homo sapiens, UniProt O75874, R132H)
Test: Assay for IDH1 R132H inhibitors (NADPH/aKG, resazurin detection)
Format: biochemical
Settings: enzyme assay of Example 12; read-out: IDH1R132H IC50
pIC50: −log10 of the molar value.
The following compounds are shown together with reported pIC50 values.

Query: Give the reported pIC50 for `COCCC(=O)N1CCN(c2nc(C3CC3)c(N3CCN(C(C)=O)CC3)cc2C#N)C[C@H]1C` (system: IDH1 R132H (Homo sapiens, UniProt O75874, R132H)).
Response: 6.00 to 6.30

Query: Give the reported pIC50 for `C=Cc1cnnc(-c2c(C3CC3)nc(N3CCN(C(=O)CCO)[C@H](C(C)C)C3)c(C#N)c2C)c1` (system: IDH1 R132H (Homo sapiens, UniProt O75874, R132H)).
Response: > 6.30

Query: Give the reported pIC50 for `COCCC(=O)N1CCN(c2nc(C3CC3)c(-c3cccc(S(C)(=O)=O)c3)c(C)c2C#N)C[C@H]1C` (system: IDH1 R132H (Homo sapiens, UniProt O75874, R132H)).
Response: 6.00 to 6.30

Query: Give the reported pIC50 for `CCO[C@@H]1C[C@@H]1C(=O)N1CCN(c2nc(C3CC3)c(-c3cccc4cnccc34)cc2C#N)C[C@H]1C1CC1` (system: IDH1 R132H (Homo sapiens, UniProt O75874, R132H)).
Response: 6.00 to 6.30

---
Query: Give the reported pIC50 for `N#Cc1cc(-c2cccc3cnc(Cl)cc23)c(C2CC2)nc1N1CCN(C(=O)C2CC2)[C@H](C2CC2)C1` (system: IDH1 R132H (Homo sapiens, UniProt O75874, R132H)).
Response: > 6.30

Query: Give the reported pIC50 for `C=Cc1ccnc(Nc2cc(C#N)c(N3CCN(C(=O)CCOC)[C@H](C4CC4)C3)nc2C2CC2)c1` (system: IDH1 R132H (Homo sapiens, UniProt O75874, R132H)).
Response: > 6.30

Query: Give the reported pIC50 for `COCCC(=O)N1CCN(c2nc(C3CC3)c(-c3ccc4cc[nH]c4c3)cc2C#N)C[C@H]1C` (system: IDH1 R132H (Homo sapiens, UniProt O75874, R132H)).
Response: > 6.30

* * *

Molecular target: IDH1 R132H (Homo sapiens, UniProt O75874, R132H)
Assay: Assay for IDH1 R132H inhibitors (NADPH/aKG, resazurin detection)
Format: biochemical
Details: Table 3; enzyme assay, 50 minutes at room temperature; read-out: IC50 (IDH1 R132H Inhibition)
pIC50: −log10 of the molar value.
measuredEndpoint: pIC50

For orientation, consider the following solved cases.
Query: Consider the compound CC(C)c1nc(N2CCN(C(=O)c3c[nH]c4ccccc34)CC2c2ccccc2)c(C#N)cc1-c1ccccc1 (stereo not shown) and give its measured pIC50.
Response: 5.30 to 6.00

Query: Consider the compound `COc1ccccc1-c1cc(C(C)C)nc(N2CCN(C(=O)c3ccoc3)[C@H](C)C2)c1C#N` and give its measured pIC50.
Response: 5.30 to 6.00

Query: Consider the compound `COCCC(=O)N1CCN(c2nc(C3CC3)c(-c3cccc(OC)c3)c(C)c2C#N)C[C@H]1C` and give its measured pIC50.
Response: ≥ 6.00

Query: Consider the compound `COCCC(=O)N1CCN(c2nc(C3CC3)c(-c3ccc(OC)nc3)cc2C#N)C[C@H]1C` and give its measured pIC50.
Response: ≥ 6.00

Query: Consider the compound CC(C)c1cc(-c2ccccc2)c(C#N)c(N2CCN(C(=O)c3ccoc3)CC2c2ccccc2)n1 (stereo not shown) and give its measured pIC50.
Response: 4.82 to 5.30

Query: Consider the compound `COCCC(=O)N1CCN(c2nc(C(C)C)c(-c3ccc(C)c(F)c3)cc2C#N)C[C@H]1C` and give its measured pIC50.
Response: 5.30 to 6.00

Query: Consider the compound `COc1ccccc1-c1cc(C#N)c(N2CCN(C(=O)c3ccoc3)[C@H](C)C2)nc1C(C)C` and give its measured pIC50.
Response: 5.30 to 6.00

Query: Consider the compound `COCCC(=O)N1CCN(c2nc(C3CC3)c(-c3ccc4ccccc4c3)c(C)c2C#N)C[C@H]1C` and give its measured pIC50.
Response: ≥ 6.00

---
Query: Consider the compound `CC(C)c1nc(N2CCN(C(=O)c3ccoc3)[C@H](C)C2)c(C#N)cc1-c1ccoc1` and give its measured pIC50.
Response: 5.30 to 6.00

Query: Consider the compound `CC(C)c1nc(N2CCN(C(=O)c3ccoc3)[C@H](C)C2)c(C#N)cc1-c1ccccc1` and give its measured pIC50.
Response: 5.30 to 6.00

Query: Consider the compound `COCCC(=O)N1CCN(c2nc(C(C)C)c(-c3cccc(F)c3)cc2C#N)C[C@H]1C` and give its measured pIC50.
Response: 5.30 to 6.00

Query: Consider the compound `CC(C)c1cc(-c2cccc(F)c2)c(C#N)c(N2CCN(C(=O)c3ccoc3)CC2)n1` and give its measured pIC50.
Response: 5.30 to 6.00

Query: Consider the compound `COCCC(=O)N1CCN(c2nc(C(C)C)c(-c3ccccc3OC)cc2C#N)C[C@H]1C` and give its measured pIC50.
Response: 5.30 to 6.00

Query: Consider the compound `COCCC(=O)N1CCN(c2nc(C3CC3)c(-c3cccc(C)c3)cc2C#N)C[C@H]1C` and give its measured pIC50.
Response: ≥ 6.00

Query: Consider the compound `COCCC(=O)N1CCN(c2nc(C3CC3)c(-c3ccsc3)cc2C#N)C[C@H]1C` and give its measured pIC50.
Response: ≥ 6.00

Query: Consider the compound `CC(C)c1nc(N2CCN(C(=O)c3ccoc3)[C@H](C)C2)c(C#N)cc1-c1ccc(C(F)(F)F)cc1` and give its measured pIC50.
Response: ≥ 6.00
